- Test system: NOMO1
- test protocol: cell viability relative to DMSO control; higher = less cytotoxic
- assay conditions: RPMI 5 mM glucose + 10% FBS; 48 h; 0.00702 µM
# maps each entry to its cell viability

# molecule, cell viability [%]
measured = [
    ("NCCCCCC(=O)O", 108),
    ("CC1(C)Cc2c(sc(NC(=S)NC(=O)c3ccccc3)c2C(=O)O)CO1", 105),
    ("CCC[C@@H](C=O)NC(=O)[C@H](CC(C)C)NC(=O)[C@H](CC(C)C)NC(=O)OCc1ccccc1", 119),
    ("COc1nccc(-c2c(-c3ccc(F)cc3)ncn2C2CCC(O)CC2)n1 (stereo not drawn)", 120),
    ("CC(=O)OCC(=O)[C@@]12OC(C)(C)O[C@@H]1C[C@H]3[C@@H]4C[C@H](F)C/5=C/C(=O)/C=C\\[C@]5(C)[C@@]4(F)[C@@H](O)C[C@]23C", 103),
    ("O=C(O)CSCC(=O)NC1CCSC1=O (stereo not drawn)", 111),
    ("O=C(C1CC1)N1CC[C@@H](Cn2c(-c3ccc(-c4ccc5occc5c4)cc3)nc3cnccc32)C1", 104),
    ("O=C(c1ccc(/C=C/c2n[nH]c3ccccc23)cc1)N1CCNCC1", 94),
    ("CCc1c(O)cc(O)c(C(=O)c2ccc(OCCN3CCOCC3)c(OC)c2)c1CC(=O)N(CCOC)CCOC", 113),
    ("COc1cccc2c(NCc3ccccc3)nc(-n3c(N)nc4ccccc43)nc12", 105),
    ("C[C@H]1[C@H](O)O[C@@H]2O[C@@]3(C)CC[C@H]4[C@H](C)CC[C@@H]1[C@@]24OO3", 93.2),
    ("COCCCOc1ccnc(C[S+]([O-])c2nc3ccccc3[nH]2)c1C (stereo not drawn)", 110),
    ("CN(c1nccc(=O)[nH]1)C1CCN(c2nc3ccccc3n2Cc2ccc(F)cc2)CC1", 112),
    ("O=C(O)[C@@H](c1ccc(OCc2ccc3ccccc3n2)cc1)C1CCCC1", 107),
    ("OCCNC1CCCc2c1[nH]c1ccc(-c3ccccc3)cc21 (stereo not drawn)", 109),
    ("CN(C)CC[C@H](CSc1ccccc1)Nc1ccc([S+](=O)([O-])NC(=O)c2ccc(N3CCN(Cc4ccccc4-c4ccc(Cl)cc4)CC3)cc2)cc1[N+](=O)[O-]", 109),
    ("CC(C)(C)Cn1c(N)nc2ccc(-c3[nH]c(C(C)(C)C)nc3-c3ccc(F)cc3)nc21", 76.3),
    ("Cc1ccc(NC(=O)Nc2cc(C(F)(F)F)ccc2F)cc1Nc1ccc2c(c1)NC(=O)/C2=C\\c1ccc[nH]1", 118),
]

###

- Tested on: P12-Ichikawa
- test protocol: cell viability relative to DMSO control; higher = less cytotoxic
- assay conditions: RPMI 5 mM glucose + 10% FBS; 48 h; 0.00702 µM
measured property: cell viability (%)

# compound, measured property, measurement
rows = [
    ("Cc1cc(SCc2sc(-c3ccc(C(F)(F)F)cc3)nc2C)ccc1OCC(=O)O", "cell viability", 96.6),
    ("CN1C2=CC(=O)/C(=N/NC(N)=O)C=C2CC1S(=O)(=O)[O-].[Na+] (stereo not given)", "cell viability", 108),
    ("CCC[C@@H](C=O)NC(=O)[C@H](CC(C)C)NC(=O)[C@H](CC(C)C)NC(=O)OCc1ccccc1", "cell viability", 113),
    ("O=[S+]([O-])(/N=C/c1c(O)ccc2ccccc12)c1cccs1", "cell viability", 130),
    ("COCCCOc1ccnc(C[S+]([O-])c2nc3ccccc3[nH]2)c1C (stereo not given)", "cell viability", 117),
]

###

- System: P12-Ichikawa
- test protocol: cell viability relative to DMSO control; higher = less cytotoxic
- assay conditions: RPMI 5 mM glucose + 10% dialyzed FBS; 48 h; 15.4 µM

# compound, system tested, unit text, cell viability
records = [
    ("CC[C@H](NC(C)C)[C@H](O)c1ccc(O)c2[nH]c(=O)ccc12", "P12-Ichikawa", "%", 95.1),
    ("O=P1(N(CCCl)CCCl)NCCCO1 (stereo not drawn)", "P12-Ichikawa", "%", 90),
    ("CCC[C@@H](C=O)NC(=O)[C@H](CC(C)C)NC(=O)[C@H](CC(C)C)NC(=O)OCc1ccccc1", "P12-Ichikawa", "%", 7.12),
]

###

- Test system: NOMO1
- test protocol: cell viability relative to DMSO control; higher = less cytotoxic
- assay conditions: RPMI 5 mM glucose + 10% dialyzed FBS; 48 h; 1.71 µM

# smiles record, system tested, cell viability
data = [
    ("CO[C@H]1/C=C/O[C@@]2(C)Oc3c(C)c(O)c4c(O)c(c(/C=N\\N5CCN(C6CCCC6)CC5)c(O)c4c3C2=O)NC(=O)/C(C)=C\\C=C\\[C@H](C)[C@H](O)[C@@H](C)[C@@H](O)[C@@H](C)[C@H](OC(C)=O)[C@@H]1C", "NOMO1", "52.9%"),
    ("COC1=CC(=CC=C1)C2=CC=C(NC(=O)/C3=C(/CCC3)C(O)=O)C(=C2)F", "NOMO1", "107%"),
    ("CN[C@H]1[C@H](O[C@@H]2[C@H](O[C@@H]3[C@@H](O)[C@@H](O)[C@@H](NC(=N)N)[C@@H](O)[C@H]3NC(=N)N)O[C@H](C)[C@@]2(O)C=O)O[C@@H](CO)[C@@H](O)[C@H]1O", "NOMO1", "109%"),
    ("C[C@]12CC[C@@H]3c4ccc(O)cc4CC[C@H]3[C@@H]1CC[C@@H]2O", "NOMO1", "103%"),
    ("CC1=CC=C2\\N=C/3N(CC[C@@]3(O)C(=O)C2=C1)C4=CC=CC=C4", "NOMO1", "88.9%"),
    ("Cc1ccc(NC(=O)c2cccc(N(C)C)c2)cc1NC(=O)c1ccc(O)cc1", "NOMO1", "126%"),
    ("C[C@H]1[C@H](O)O[C@@H]2O[C@@]3(C)CC[C@H]4[C@H](C)CC[C@@H]1[C@@]24OO3", "NOMO1", "64.4%"),
]

###

# maps each entry to its cell viability
- Test system: SEM cells
- test protocol: cell viability relative to DMSO control; higher = less cytotoxic
- assay conditions: HPLM + 10% dialyzed FBS; 48 h; 1.71 µM

# compound, cell viability
rows = [
    ("CO[C@@H]1[C@@H](OC(N)=O)[C@@H](O)[C@H](OC2=CC=C3\\C(=C(NC(=O)C4=CC=C([O-])C(=C4)CC=C(C)C)/C(=O)OC3=C2C)O)OC1(C)C", "101%"),
    ("CN1C2=CC(=O)/C(=N/NC(N)=O)C=C2CC1S(=O)(=O)[O-].[Na+] (centres undefined)", "105%"),
    ("O=[S+]([O-])(/N=C/c1c(O)ccc2ccccc12)c1cccs1", "66.8%"),
    ("Cn1cnc(-c2cc3nccc(Oc4ccc(NC(=S)NC(=O)Cc5ccccc5)cc4F)c3s2)c1", "30.5%"),
]

###

# maps each entry to its cell viability
- System: SEM cells
- test protocol: cell viability relative to DMSO control; higher = less cytotoxic
- assay conditions: RPMI 5 mM glucose + 10% FBS; 48 h; 5.12 µM
measured property: cell viability (%)

# smiles record, measured property, measurement
records = [
    ("CN(C)CC[C@H](CSc1ccccc1)Nc1ccc([S+](=O)([O-])NC(=O)c2ccc(N3CCN(Cc4ccccc4-c4ccc(Cl)cc4)CC3)cc2)cc1[N+](=O)[O-]", "cell viability", 4.95),
    ("CCCCCCCCOc1ccccc1C(=O)Nc1ccc(C(=O)OCC[N+](C)(CC)CC)cc1", "cell viability", 49.5),
    ("FC(F)(F)C1=CC=C2C(SCCCCCO\\C3=C\\O\\C(CN4CCOCC4)=C/C3=O)=CC=NC2=C1", "cell viability", 66.1),
    ("CO[C@H]1/C=C/O[C@@]2(C)Oc3c(C)c(O)c4c(O)c(c(/C=N/N5CCN(C)CC5)c(O)c4c3C2=O)NC(=O)/C(C)=C\\C=C\\[C@H](C)[C@H](O)[C@@H](C)[C@@H](O)[C@@H](C)[C@H](OC(C)=O)[C@@H]1C", "cell viability", 55),
    ("CCNC(=O)Nc1ccc(-c2nc3c(c(N4CCOC[C@@H]4C)n2)CCN(C2COC2)C3)cc1", "cell viability", 41.1),
    ("CN1\\N=N/C2=C(N=C[N]2C1=O)C(N)=O", "cell viability", 41.9),
    ("C[C@]12CC[C@@H]3c4ccc(O)cc4CC[C@H]3[C@@H]1CC[C@@H]2O", "cell viability", 113),
]
